Recorded values, source patent US20110318339A1.

studyTarget: T1, recombinant human DLL4 (Cat# 1506-D4/CF, R&D Systems) (human, UniProt Q9NR61 27-529)
T1 construct: Bought protein; also called hDLL4; rHuman DLL4
runDescription: ELISA, DLL4 coated, Fab 0.74 nM
Provide the recorded ELISA absorbance at 450 nm for the entries that follow.
Numbers only, in A450.

Look over these answered cases.
binder="Fab VH5-51_IGHD5-18*01>3_IGHJ4*01 G100K/G104T G24T/S28R/G35V & V3-4_IGLJ1*01 (Fab, V domains shown, Fab made in E. coli: VH on CH1 with His6 and Flag tags (Plasmid A), VL on lambda CL (Plasmid E); also called H: KT TRV & L: wt) VH: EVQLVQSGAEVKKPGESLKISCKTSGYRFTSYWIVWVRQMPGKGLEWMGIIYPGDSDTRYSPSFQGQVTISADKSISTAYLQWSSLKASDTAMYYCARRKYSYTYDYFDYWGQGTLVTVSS VL: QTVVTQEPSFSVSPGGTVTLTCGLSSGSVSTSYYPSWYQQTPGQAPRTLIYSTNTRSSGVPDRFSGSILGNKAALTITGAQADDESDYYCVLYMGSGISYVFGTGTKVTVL" number=0.002
binder="Fab VH5-51_IGHD5-18*01>3_IGHJ4*01 G100K/G104T & V3-4_IGLJ1*01 M94R/S96M (Fab, V domains shown, Fab made in E. coli: VH on CH1 with His6 and Flag tags (Plasmid A), VL on lambda CL (Plasmid E); also called H: KT & L: RM) VH: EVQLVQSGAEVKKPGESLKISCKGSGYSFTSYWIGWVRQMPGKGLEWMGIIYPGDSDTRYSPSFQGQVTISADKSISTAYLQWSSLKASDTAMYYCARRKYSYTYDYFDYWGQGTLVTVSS VL: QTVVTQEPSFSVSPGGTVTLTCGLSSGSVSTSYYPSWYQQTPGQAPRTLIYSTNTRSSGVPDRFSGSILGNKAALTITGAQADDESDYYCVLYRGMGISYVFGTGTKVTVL" number=0

From here, focus on the item given below.
Given the binder Fab VH1-46_IGHD6-6*01_IGHJ1*01 S102A/S103P/S104F/H111F I51V/N52L/S54T/G56H & L6_IGKJ1*01 S28N/S30D/S31H S52L/A55S (Fab, V domains shown, Fab made in E. coli: VH on CH1 with His6 and Flag tags (Plasmid A), VL on kappa CL (Plasmid C); also called H: APFF VLTH & L: NDH LS) VH: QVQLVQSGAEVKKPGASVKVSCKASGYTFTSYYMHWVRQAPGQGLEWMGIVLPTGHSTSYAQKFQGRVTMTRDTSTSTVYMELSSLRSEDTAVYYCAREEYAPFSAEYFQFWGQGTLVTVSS VL: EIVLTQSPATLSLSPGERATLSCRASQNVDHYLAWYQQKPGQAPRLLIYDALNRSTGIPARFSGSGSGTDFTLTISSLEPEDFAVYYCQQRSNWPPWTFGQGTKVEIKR , what is its reported ELISA absorbance at 450 nm? 0.263
